Before we begin, note that these pIC50 values for Vascular endothelial growth factor receptor 2 (Homo sapiens) originate from several publications.
pIC50: −log10 of the molar value.
Readout Kind: pIC50

1) COc1cc(-c2cc3nccc(-c4c(OC)cccc4OC)c3o2)cc(OC)c1OC    4.30 to 5.52
2) O=C(Nc1ccc(Oc2ncnc3cc(OCCCN4CCOCC4)c4c(c23)OCCO4)cc1)Nc1ccc(F)c(C(F)(F)F)c1    > 7.30
3) Cn1cc(-c2nccc(Oc3ccc(NC(=O)Nc4ccc(Cl)c(C(F)(F)F)c4)c(F)c3)c2Cl)cn1    6.65

###

Before we begin, note that these pIC50 values for Vascular endothelial growth factor receptor 2 (Homo sapiens, UniProt P35968) originate from several publications.
pIC50: −log10 of the molar value.
Readout Kind: pIC50

1) O=C(c1cccc(NS(=O)(=O)c2ccc(C(F)(F)F)cc2)c1)c1c[nH]c2ncc(Cl)cc12    ≥ 5.00
2) CCOc1cc(-c2cnc(N3C[C@@H]4C[C@@](C)(NC(=O)c5ncccc5Cl)C[C@@H]4C3)cn2)c2c(C#N)cnn2c1    < 7.00
3) Cn1cc(C(=O)Nc2ccc(Oc3ncnc4cc(OCCCN5CCOCC5)c5c(c34)OCCO5)c(F)c2)c(=O)n(-c2ccc(F)cc2)c1=O    ≥ 7.30
4) COc1cccc(C(=O)c2c[nH]c3ncc(-c4cccc(/C=C/C(=O)O)c4)cc23)c1    ≥ 5.00
5) COc1cc2ncnc(Nc3ccc(NC(=O)NC4CC4)c(Cl)c3)c2c2c1OCCO2    > 7.30
6) Cc1cc(OCCN(C)C)c2oc3cc(Sc4ccc(CCC(=O)NC5CCCC5)nc4)ccc3c(=O)c2c1    5.00 to 6.00

###

Before we begin, note that these pIC50 values for Vascular endothelial growth factor receptor 2 (Homo sapiens) originate from several publications.
pIC50: −log10 of the molar value.
Readout Kind: pIC50

1. C#Cc1cccc(NC(=O)Nc2cccc(Oc3cc(-c4cnn(C)c4)ncn3)c2)c1    ≥ 5.00
2. CCOc1ccn(-c2ccc(F)cc2)c(=O)c1C(=O)Nc1ccc(Oc2ccnc3cc(OCCCN4CCCCC4)c4c(c23)OCCO4)c(F)c1    ≥ 7.30
3. CCCS(=O)(=O)Nc1ccc(F)c(C(=O)c2c[nH]c3ncc(C(=O)NCCO)cc23)c1F    ≥ 5.00
4. Cc1cn(-c2cc(NC(=O)Nc3ccc(Oc4cc(-c5cnn(C)c5)ncn4)cc3)cc(C(F)(F)F)c2)cn1    ≥ 5.00
5. NC(=O)c1ccc(-c2cnc3[nH]cc(C(=O)c4cccc(O)c4)c3c2)cc1    ≥ 5.00
6. Cc1cc(Oc2cc(NC(=O)C3CC3)ncn2)ccc1NC(=O)Nc1cccc(C(F)(F)F)c1    7.98
7. O=C(c1c(F)ccc(NS(=O)(=O)C(F)(F)F)c1F)c1c[nH]c2ncc(Cl)cc12    ≥ 5.00
8. CCCOc1ccc(C(=O)Nc2cccc(Oc3ccnc(-c4cnn(C)c4)c3)c2)cc1    < 5.00
9. Cn1cc(-c2cc(Oc3cccc(NC(=O)c4ccc(C(=O)c5ccccc5)cc4)c3)ccn2)cn1    ≥ 5.00
10. C#C[C@@](C)(O)COc1cc(-c2ccc(N3CC4CC(C3)N4Cc3ccc(OC)nc3)nc2)c2c(C#N)cnn2c1    7.66

###

Before we begin, note that these IC50 values for Vascular endothelial growth factor receptor 2 (Homo sapiens, UniProt P35968) originate from several publications.
Readout Kind: IC50

1. O=C(c1c(F)ccc(NS(=O)(=O)CCC(F)(F)F)c1F)c1c[nH]c2ncc(Cl)cc12    ≤ 10 µM
2. COc1cc2nccc(Oc3ccc(NC(=O)c4cn(C)cc(-c5ccc(F)cc5)c4=O)cc3F)c2nc1OC    < 0.1 µM
3. O=C(c1cc(NS(=O)(=O)c2ccc(Cl)cc2)ccc1F)c1c[nH]c2ncc(Cl)cc12    ≤ 10 µM
4. O=C(c1ccc(Cl)cc1)c1c[nH]c2ncc(-c3cccnc3)cc12    ≤ 10 µM
5. CCCS(=O)(=O)Nc1ccc(F)c(C(=O)c2c[nH]c3ncc(-c4cnc(N5CCOCC5)nc4)cc23)c1F    ≤ 10 µM
6. O=C(Nc1cccc(Oc2ccnc(-c3nnco3)c2)c1)c1cccc(Oc2ccccc2)c1    ≤ 10 µM

###

pIC50: −log10 of the molar value.
Before we begin, note that these pIC50 values for Vascular endothelial growth factor receptor 2 (Homo sapiens, UniProt P35968) originate from several publications.
Readout Kind: pIC50

1. COc1cc(Nc2nc3c(-c4cccc(O)c4)nccn3n2)cc(OC)c1    > 6.52
2. COc1ccc(-c2cnc3[nH]ccc3c2)cc1OC    ≥ 5.00
3. C=CC(=O)Nc1cc2c(Nc3ccc(Br)cc3F)ncnc2cc1OCC(C)NC(=O)CCN(CC)CC (stereo not drawn)    6.60

###

Before we begin, note that these IC50 values for Vascular endothelial growth factor receptor 2 (Homo sapiens) originate from several publications.
Readout Kind: IC50

1. COc1cc(OC)cc(N(CC2CC2)c2ccc3ncc(NC(=O)c4ccc(F)cc4)nc3c2)c1    > 10000 nM
2. C=CC(=O)Nc1cc2c(Nc3ccc(Br)c(Cl)c3F)ncnc2cc1OCCNC(=O)CN(CC)CC    309 nM
3. COc1ncc(F)cc1CNc1ccc(Cc2c[nH]c3ncncc23)c(F)n1    ≤ 10000 nM
4. Cc1cc(OCCN2C[C@@H](C)N(C)[C@@H](C)C2)c2oc3cc(Oc4ccc(CCC(=O)NC5CCCC5)nc4)ccc3c(=O)c2c1    > 10000 nM
5. CN(C)c1ccc(-c2nccn3nc(Nc4ccc(N5CCOCC5)cc4)nc23)cn1    < 300 nM
6. COc1cc(C2=C(c3c[nH]c4ncccc34)C(=O)NC2=O)cc(OC)c1OC    37 nM
7. O=C(Nc1cc(N2CCOCC2=O)cc(C(F)(F)F)c1)Nc1ccc(Oc2ccnc(NC(=O)C3CC3)c2)c(F)c1    12.4 nM
8. CC(C)(O)COc1cc(-c2ccc(N3C[C@H]4CN(C(=O)c5c(F)cccc5Cl)C[C@H]4C3)nc2)c2c(C#N)cnn2c1    50 to 100 nM
9. COc1cnc2[nH]cc(C(=O)c3cccc(NS(=O)(=O)C4CCCCC4)c3)c2c1    ≤ 10000 nM
10. COc1ncnc2[nH]cc(Cc3cnc(NCc4ccc(C(F)(F)F)nc4)c(F)c3)c12    ≤ 10000 nM
11. O=C(Nc1cccc(Oc2ccnc(-c3nnco3)c2)c1)c1ccc2c(c1)OCCCO2    ≤ 10000 nM
